Data provenance is ChEMBL document CHEMBL5360543.

Ki for assorted compounds
Target: Tyrosine-protein phosphatase non-receptor type 1 (Homo sapiens)
Sequence (P18031 whole entry, the tested form may be a part): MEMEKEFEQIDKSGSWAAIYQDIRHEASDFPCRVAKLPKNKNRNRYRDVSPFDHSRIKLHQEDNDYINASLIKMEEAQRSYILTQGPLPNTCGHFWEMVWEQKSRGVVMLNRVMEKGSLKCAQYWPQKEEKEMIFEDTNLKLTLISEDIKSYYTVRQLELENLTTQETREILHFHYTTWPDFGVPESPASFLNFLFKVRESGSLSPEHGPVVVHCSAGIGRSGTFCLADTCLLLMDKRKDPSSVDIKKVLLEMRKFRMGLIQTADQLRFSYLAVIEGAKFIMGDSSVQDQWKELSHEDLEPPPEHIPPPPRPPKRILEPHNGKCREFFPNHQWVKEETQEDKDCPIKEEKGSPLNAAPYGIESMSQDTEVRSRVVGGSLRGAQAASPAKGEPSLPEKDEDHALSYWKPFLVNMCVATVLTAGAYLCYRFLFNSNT
Measurement Notes: Non-competitive inhibition of N-terminal polyHis-tagged human PTP1B1 (1 to 303 residues) expressed in Escherichia coli BL21(DE3)pLysS assessed as apparent dissociation constant for ESI complex using pNPP as substrate by Lineweaver-Burk plot analysis
Give just the number in µM; leave the unit off.

- Compound: "O=C(O)CN1C(=O)/C(=C/c2cccc(OCCCCc3ccccc3)c2)SC1=S"
  Ki [µM]: 4.3

Turning now to a further record.
In one line, give reported Ki of the entry `O=C(O)CN1C(=O)/C(=C/c2ccc(OCCCCc3ccccc3)cc2)SC1=S` .
17.5
